Attribution: ChEMBL document CHEMBL1833843

The following compounds are listed with their measured IC50 values.
# Test system: KB
# method: Cytotoxicity against human KB cells by sulforhodamine B assay
# Type: functional, cell-based
assay.metric: IC50 (µg/mL)

[[record]]
compound = "COc1ccc(CCCc2ccc(O)c(OC)c2)c(O)c1"
assay_metric = "IC50"
assay_value = 2.18

[[record]]
compound = "COC1=CC(=O)C(CCCc2ccc(O)c(OC)c2)=CC1=O [GRIFFITHANE D]"
assay_metric = "IC50"
assay_value = 1.42

[[record]]
compound = "COc1cc(CCCc2cc(OC)c(O)cc2OC)ccc1O [GRIFFITHANE A]"
assay_metric = "IC50"
assay_value = 2.13

[[record]]
compound = "COc1cc(CCCc2ccc(OC)c(O)c2OC)ccc1O [GRIFFITHANE B]"
assay_metric = "IC50"
assay_value = 5.67

